The origin of these recorded values is patent US20190352268A1.

biological target: CB1 (Mus musculus, UniProt P47746); assay: CB1 radioligand displacement assay in mouse brain membranes; format: binding; set-up: radioligand displacement assay in mouse brain membranes; from tissue; host or cells: mouse brain membranes; details: Table 2; read-out: Ki CB1
Sequence (P47746 whole entry): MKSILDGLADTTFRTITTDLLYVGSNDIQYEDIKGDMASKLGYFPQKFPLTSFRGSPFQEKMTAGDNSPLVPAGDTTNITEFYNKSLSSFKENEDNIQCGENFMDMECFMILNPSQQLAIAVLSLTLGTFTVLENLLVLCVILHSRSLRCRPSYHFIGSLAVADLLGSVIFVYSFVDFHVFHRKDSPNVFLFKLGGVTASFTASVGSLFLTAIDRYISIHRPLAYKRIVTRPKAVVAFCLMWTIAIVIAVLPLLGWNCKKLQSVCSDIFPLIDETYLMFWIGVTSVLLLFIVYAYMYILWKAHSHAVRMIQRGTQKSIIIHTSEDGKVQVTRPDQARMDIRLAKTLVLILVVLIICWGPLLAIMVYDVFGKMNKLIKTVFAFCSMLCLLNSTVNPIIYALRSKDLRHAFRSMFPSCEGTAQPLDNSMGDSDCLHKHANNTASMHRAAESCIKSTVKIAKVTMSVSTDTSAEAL
pKi: −log10 of the molar value.
Rule: pKi under 8 gives not fulfilled, otherwise fulfilled.

Reference set, count: 5
{"molecule": "COC(CN/C(N)=N/C(=N/S(=O)(=O)c1ccc(Cl)cc1)N1CC(c2ccccc2)C(c2ccc(Cl)cc2)=N1)OC (stereo not shown)", "category": "not fulfilled"}
{"molecule": "CCCN(CCC)/C(N)=N/C(=N/S(=O)(=O)c1ccc(Cl)cc1)N1CC(c2ccccc2)C(c2ccc(Cl)cc2)=N1 (stereo not shown)", "category": "not fulfilled"}
{"molecule": "CC(=O)N/C(N)=N/C(=N/S(=O)(=O)c1ccc(OC(F)(F)F)cc1)N1CC(c2ccccc2)C(c2ccc(Cl)cc2)=N1 (stereo not shown)", "category": "fulfilled"}
{"molecule": "CCCCN(CC)/C(N)=N/C(=N/S(=O)(=O)c1ccc(Cl)cc1)N1CC(c2ccccc2)C(c2ccc(Cl)cc2)=N1 (stereo not shown)", "category": "not fulfilled"}
{"molecule": "CC(C)(C)C(N)=NC(=NS(=O)(=O)c1ccc(C(F)(F)F)cc1)N1CC(c2ccccc2)C(c2ccc(Cl)cc2)=N1 (stereo not shown)", "category": "fulfilled"}

Could you tell me if the measured pKi of N/C(=N/C(=N\S(=O)(=O)c1ccc(Cl)cc1)N1CC(c2ccccc2)C(c2ccc(Cl)cc2)=N1)c1ccc(F)cc1 (single isomer, unassigned) [Compound 10E2] reaches 8 or more? not fulfilled
